Reported IC50 by item:
biological target: Somatostatin receptor type 5 (Homo sapiens, UniProt P35346); test: Binding affinity towards human somatostatin receptor type 5 using [125I][Leu8,D-Trp22,Tyr25]SRIF-28 as radioligand.
Sequence (P35346 whole entry): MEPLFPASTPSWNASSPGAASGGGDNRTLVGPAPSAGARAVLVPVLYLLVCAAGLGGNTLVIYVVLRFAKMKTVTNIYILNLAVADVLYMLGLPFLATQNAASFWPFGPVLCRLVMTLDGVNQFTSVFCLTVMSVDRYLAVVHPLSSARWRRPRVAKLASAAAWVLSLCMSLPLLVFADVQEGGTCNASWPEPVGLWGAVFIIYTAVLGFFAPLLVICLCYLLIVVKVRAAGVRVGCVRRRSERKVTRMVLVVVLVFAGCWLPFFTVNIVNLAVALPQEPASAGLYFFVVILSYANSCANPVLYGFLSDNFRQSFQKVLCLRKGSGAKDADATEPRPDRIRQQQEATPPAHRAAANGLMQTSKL
Bridge positions count the residues as written; N and C are the ends. Square brackets hold non-standard residues; d marks the D form. Peptide text beside a SMILES is read from it.
Use nM as the unit, but write only the number.

C[C@@H](O)[C@@H]1NC(=O)[C@H](CCCCN)NC(=O)[C@H](Cc2c[nH]c3ccccc23)NC(=O)[C@H](Cc2ccc(N)cc2)NC(=O)[C@H](Cc2ccccc2)NC(=O)[C@@H](NC(=O)[C@H](Cc2ccc(O)c(I)c2)NC(N)=O)CSSC[C@@H](C(=O)O)NC(=O)[C@H](Cc2ccccc2)NC1=O: 990

// below: IC50 requested for another compound
// assay Somatostatin receptor type 5 (Homo sapiens, UniProt P35346), entry C[C@@H](O)[C@@H]1NC(=O)[C@H](CCCCN)NC(=O)[C@@H](Cc2c[nH]c3ccccc23)NC(=O)[C@H](Cc2ccccc2)NC(=O)[C@H](Cc2ccccc2)NC(=O)[C@@H](N)CSSC[C@@H](C(=O)O)NC(=O)[C@H](Cc2ccccc2)NC1=O (H-CFF[dW]KTFC-OH; disulfide 1-8) , IC50 value = 46

###

Record set of pIC50 for target or system Somatostatin receptor type 5 (Homo sapiens).
Bridge positions count the residues as written; N and C are the ends. Peptide text beside a SMILES is read from it.
Expect pIC50 as a plain number equal to -log10 of the molar concentration.

C[C@@H](O)[C@@H]1NC(=O)[C@H](CCCCN)NC(=O)[C@@H](Cc2c[nH]c3ccccc23)NC(=O)[C@H](Cc2ccccc2)NC(=O)[C@H](Cc2ccccc2)NC(=O)[C@@H](N)CSSC[C@@H](C(=O)O)NC(=O)[C@H](Cc2ccc(O)cc2)NC1=O (stereo in doubt): 8.32

Okay, now this compound:
Per the reported Somatostatin receptor type 5 (Homo sapiens) data, C[C@@H](O)[C@@H]1NC(=O)[C@H](CCCCN)NC(=O)[C@H](Cc2c[nH]c3ccccc23)NC(=O)[C@H](Cc2ccccc2)NC(=O)[C@H](Cc2ccccc2)NC(=O)[C@@H](N)CSSC[C@@H](C(=O)O)NC(=O)[C@H](Cc2ccccc2)NC1=O (H-CFFWKTFC-OH; disulfide 1-8) has pIC50 of 7.85

###

Numbered stars: 1 amine (or outer) side, 2 acyl side, 3 side chain; on linkers, the order of the positions; unused ones are H or OH. Bridge positions count the residues as written; N and C are the ends. Square brackets hold non-standard residues; d marks the D form. Peptide text beside a SMILES is read from it. * marks the point of attachment. Tyr(Nα-carbamoyl) = NC(=O)N[C@@H](Cc1ccc(O)cc1)C(=O)*; X3 = C[C@H](c1c[nH]c2ccccc12)[C@@H](N[*:1])C(=O)[*:2]
The following compounds have recorded IC50 on UniProt P31391.
Sequence (P31391 whole entry): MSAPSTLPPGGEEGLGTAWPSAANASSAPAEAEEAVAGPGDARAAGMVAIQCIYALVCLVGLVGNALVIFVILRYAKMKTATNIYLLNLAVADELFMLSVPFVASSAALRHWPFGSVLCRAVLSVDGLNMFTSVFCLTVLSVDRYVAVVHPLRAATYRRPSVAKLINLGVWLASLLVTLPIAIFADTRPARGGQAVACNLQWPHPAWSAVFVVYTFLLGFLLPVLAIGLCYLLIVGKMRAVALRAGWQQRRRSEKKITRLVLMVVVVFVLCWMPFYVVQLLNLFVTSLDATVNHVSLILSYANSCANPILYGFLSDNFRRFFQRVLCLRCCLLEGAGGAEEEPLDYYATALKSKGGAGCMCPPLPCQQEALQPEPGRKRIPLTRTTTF
Record the value in nM, omitting the unit from your answer.

C[C@@H]1NC(=O)[C@H](Cc2ccccc2)NC(=O)[C@@H](NC(=O)[C@@H](N)Cc2ccc(O)c(I)c2)CSSC[C@@H](C(=O)O)NC(=O)[C@H](Cc2ccccc2)NC(=O)[C@H]([C@@H](C)O)NC(=O)[C@H](CCCCN)NC(=O)[C@H](Cc2c[nH]c3ccccc23)NC1=O: 3.5
C[C@H](c1c[nH]c2ccccc12)[C@H]1NC(=O)[C@H](Cc2ccccc2)NC(=O)[C@H](Cc2ccccc2)NC(=O)[C@@H](N)CSSC[C@@H](C(=O)O)NC(=O)[C@H](Cc2ccccc2)NC(=O)[C@H]([C@@H](C)O)NC(=O)[C@H](CCCCN)NC1=O (H-CFF[X3]KTFC-OH; disulfide 1-8): 4

GET /values?item= C[C@@H](O)[C@@H]1NC(=O)[C@H](CCCCN)NC(=O)[C@@H](Cc2c[nH]c3ccccc23)NC(=O)[C@H](Cc2ccccc2)NC(=O)[C@H](Cc2ccccc2)NC(=O)[C@@H](NC(N)=O)CSSC[C@@H](C(=O)O)NC(=O)[C@H](Cc2ccc(O)cc2)NC1=O (stereo in doubt) &system= UniProt P31391 returns IC50: 1

The compound C[C@@H]1NC(=O)[C@H](Cc2ccccc2)NC(=O)[C@@H](NC(=O)[C@@H](N)Cc2ccc(O)cc2)CSSC[C@@H](C(=O)O)NC(=O)[C@H](Cc2ccccc2)NC(=O)[C@H]([C@@H](C)O)NC(=O)[C@H](CCCCN)NC(=O)[C@@H]([C@@H](C)c2c[nH]c3ccccc23)NC1=O , when measured on UniProt P31391, yielded IC50 of 5.6

Measured on UniProt P31391, C[C@@H](O)[C@@H]1NC(=O)[C@H](CCCCN)NC(=O)[C@@H](Cc2c[nH]c3ccccc23)NC(=O)[C@H](Cc2ccccc2)NC(=O)[C@H](Cc2ccccc2)NC(=O)[C@@H](N)CSSC[C@@H](C(=O)O)NC(=O)[C@H](Cc2ccccc2)NC1=O (H-CFF[dW]KTFC-OH; disulfide 1-8) has a documented IC50 of 1.8

Case C[C@@H](O)[C@@H]1NC(=O)[C@H](CCCCN)NC(=O)[C@@H](Cc2c[nH]c3ccccc23)NC(=O)[C@H](Cc2ccccc2)NC(=O)[C@H](Cc2ccccc2)NC(=O)[C@@H](N)CSSC[C@@H](C(=O)O)NC(=O)[C@H](Cc2ccc(O)cc2)NC1=O (stereo in doubt) , UniProt P31391, IC50 recorded as 0.51

Item: C[C@@H]1NC(=O)[C@H](Cc2ccccc2)NC(=O)[C@@H](NC(=O)[C@H](Cc2ccc(O)cc2)NC(N)=O)CSSC[C@@H](C(=O)O)NC(=O)[C@H](Cc2ccccc2)NC(=O)[C@H]([C@@H](C)O)NC(=O)[C@H](CCCCN)NC(=O)[C@H](Cc2c[nH]c3ccccc23)NC1=O ({Tyr(Nα-carbamoyl)}-CFAWKTFC-OH; disulfide 1-8) | System: UniProt P31391 | IC50: 2.4
